target: T1, human ILT2 on primary NK cells (human, UniProt Q8NHL6 24-650); test: flow cytometry, primary NK cells
T1 construct: whole, on cells
T1 sequence (Q8NHL6 24-650): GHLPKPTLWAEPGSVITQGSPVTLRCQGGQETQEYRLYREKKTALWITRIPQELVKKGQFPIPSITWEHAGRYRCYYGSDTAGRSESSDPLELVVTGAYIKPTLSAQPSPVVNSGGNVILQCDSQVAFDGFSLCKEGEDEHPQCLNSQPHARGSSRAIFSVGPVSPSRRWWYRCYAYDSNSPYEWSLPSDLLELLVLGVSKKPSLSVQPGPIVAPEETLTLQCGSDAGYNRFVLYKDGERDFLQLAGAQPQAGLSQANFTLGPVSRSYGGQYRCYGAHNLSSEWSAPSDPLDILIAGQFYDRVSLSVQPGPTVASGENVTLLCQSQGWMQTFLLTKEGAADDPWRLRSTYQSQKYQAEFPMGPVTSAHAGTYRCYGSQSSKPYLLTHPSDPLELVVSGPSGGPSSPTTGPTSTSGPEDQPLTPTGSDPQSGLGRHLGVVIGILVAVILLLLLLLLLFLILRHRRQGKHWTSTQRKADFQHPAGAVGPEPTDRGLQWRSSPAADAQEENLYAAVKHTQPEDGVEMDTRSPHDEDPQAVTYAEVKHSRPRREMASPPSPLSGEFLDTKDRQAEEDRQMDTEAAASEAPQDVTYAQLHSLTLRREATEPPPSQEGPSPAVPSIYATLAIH
Listed here: items and their measured EC50.
test readout: EC50 (µg/mL)

binder	result value
3H5 (antibody, human IgG1, V domains shown) VH: QVQLKESGPGLVAPSQSLSITCTVSGFSLTSYGVSWVRQPPGKGLEWLGVIWGDGSTNYHSALISRLSISKDNSKSQVFLKLNSLQTDDTATYYCAKPRWDDYAMDYWGQGTSVTVSS VL: DIQMTQTTSSLSASLGDRVTISCRASQDISNYLNWYQQKPDGTVKLLIYYTSRLHSGVPSRFSGSGSGTDYSLTISNLEQEDIATYFCQQGNTLWTFGGGTKLEIK	0.48
18E1 (antibody, human IgG1, V domains shown) VH: QVQLQQSGAELVKPGASVRLSCKASGYTFTAHTIHWVKQRSGQGLEWIGWLYPGSGSIKYNEKFKDKATLTADKSSSTVYMELSRLTSEDSAVYFCARHTNWDFDYWGQGTTLTVSS VL: NIVLTQSPASLAVSLGQRATISCKASQSVDYGGASYMNWYQQKPGQPPKLLIYAASNLESGIPARFSGSGSGTDLTLNIHPVEEEDAAMYYCQQSNEEPWTFGGGTKLEIK	0.11
